# Read-out: JUN Transcription Factor, JUN (gene 3725)
# Procedure summary: LTEA_HepaRG_JUN: Life Technologies and Expression Analysis (LTEA) Assay for JUN Transcription Factor using HepaRG (AID 2283513)
# Protocol conditions: mRNA level, 48 h; actives raise or lower the signal
Active and inactive are the calls of the source. The calls were made as follows: active = hit-call score of the fitted dose curve at least 0.9, where 1 is the maximum; inactive = score below 0.9.
I would appreciate it if you answered using one of these outcomes: 1 (active), -1 (inactive)

>>> print(df.to_string())
                                   compound  group
0          CCOP(=S)(OCC)Oc1nc(Cl)n(C(C)C)n1     -1
1  C=C(C)CN(CC)c1c([N+](=O)[O-])cc(C(F)(F)F)cc1[N+](=O)[O-]     -1
2  CC(C)=CC1C(C(=O)OCc2coc(Cc3ccccc3)c2)C1(C)C (stereo not given)     -1
3  CCCCC(O)(Cn1cncn1)c1ccc(Cl)cc1Cl (stereo not given)     -1
4  OC(c1ccc(Cl)cc1)(c1ccc(Cl)cc1)C(Cl)(Cl)Cl     -1

Query string: Which result was noted for this compound in the test: CC(C)N1C(=O)c2ccccc2NS1(=O)=O
Result string: -1

Query string: Item: Clc1nc(Cl)nc(Nc2ccccc2Cl)n1
Result string: -1

Query string: Please do the same for CCOC(=O)C(C)OC(=O)c1cc(Oc2ccc(C(F)(F)F)cc2Cl)ccc1[N+](=O)[O-] (stereo not given) as well.
Result string: -1

Query string: Please do the same for Nc1c(Cl)c(Cl)nc(C(=O)O)c1Cl as well.
Result string: -1

Query string: Do the same for CC(C)Oc1cccc(NC(=O)c2ccccc2C(F)(F)F)c1 please
Result string: -1

Query string: Try N#Cc1c[nH]cc1-c1cccc2c1OC(F)(F)O2 next.
Result string: -1

====

# Procedure summary: APR_HepG2_CellCycleArrest_1hr: Apredica 1-hour HepG2 Assay for Cell Cycle Arrest (AID 2282666)
# Protocol conditions: high-content imaging, actives raise or lower the signal
Activity calls are given as the source filed them. How the source made its calls: active means hit-call score of the fitted dose curve at least 0.9, where 1 is the maximum; inactive means score below 0.9.
Give your call using only these classes: True (active), False (inactive)

In [3]: df
Out[3]:
                                   compound  group
0  CC1(C)CCC(=Cc2ccc(Cl)cc2)C1(O)Cn1cncn1 (stereo not drawn)  False
1           CCCCOCN(C(=O)CCl)c1c(CC)cccc1CC  False
2                Nc1cnn(-c2ccccc2)c(=O)c1Cl  False
3  CC1(C)C(C=C(Cl)Cl)C1C(=O)OC(C#N)c1cccc(Oc2ccccc2)c1 (stereo not drawn)  False

Query string: Which outcome was assigned to CCCC(=NOCC)C1=C(O)CC(CC(C)SCC)CC1=O (stereo not drawn) in this test?
Result string: False

Query string: Record: COP(=O)(OC)O/C(C)=C/C(=O)N(C)C
Result string: False

Query string: Record: CCCCC(C#N)(Cn1cncn1)c1ccc(Cl)cc1 (stereo not drawn)
Result string: False

Query string: Field entry: Cc1cc(C)nc(Nc2ccccc2)n1
Result string: False

====

# Read-out: Cytochrome P450 3A4 (Homo sapiens) (UniProt P08684)
# Sequence (P08684 whole entry, looked up): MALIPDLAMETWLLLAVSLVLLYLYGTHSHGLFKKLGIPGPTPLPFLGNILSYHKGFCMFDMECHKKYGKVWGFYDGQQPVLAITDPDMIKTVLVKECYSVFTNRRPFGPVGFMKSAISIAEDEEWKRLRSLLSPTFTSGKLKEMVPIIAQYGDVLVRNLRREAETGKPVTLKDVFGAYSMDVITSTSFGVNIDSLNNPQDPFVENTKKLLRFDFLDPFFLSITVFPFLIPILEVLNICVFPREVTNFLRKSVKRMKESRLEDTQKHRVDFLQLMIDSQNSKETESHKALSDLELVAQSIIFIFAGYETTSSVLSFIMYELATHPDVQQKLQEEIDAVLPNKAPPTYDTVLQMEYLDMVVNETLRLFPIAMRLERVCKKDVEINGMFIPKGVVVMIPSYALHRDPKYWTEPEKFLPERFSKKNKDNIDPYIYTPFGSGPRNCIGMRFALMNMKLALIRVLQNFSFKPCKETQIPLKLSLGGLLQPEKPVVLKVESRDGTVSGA
# Procedure summary: LTEA_HepaRG_CYP3A4: Life Technologies and Expression Analysis (LTEA) Assay for CYP3A4 using HepaRG (AID 2283487)
# Protocol conditions: mRNA level, 48 h; actives raise or lower the signal
Calls of active or inactive are those of the source. Rule for the calls: active = hit-call score of the fitted dose curve at least 0.9, where 1 is the maximum; inactive = score below 0.9.
Measurement label: AC50

In [3]: df
Out[3]:
                                   molecule    reported_value
0                         N#Cc1c(Cl)cccc1Cl          inactive
1                   CCOc1nc(C(Cl)(Cl)Cl)ns1          inactive
2  COC(=O)N(C(=O)N1CO[C@@]2(C(=O)OC)Cc3cc(Cl)ccc3C2=N1)c1ccc(OC(F)(F)F)cc1  9.42 µM (active)
3               Clc1nc(Cl)nc(Nc2ccccc2Cl)n1  18.5 µM (active)
4              O=C(O)c1c(Cl)ccc2cc(Cl)cnc12          inactive

Could you now look at the following molecule, please?
Query string: Which value of AC50 has been reported for CCC(C)n1c(=O)[nH]c(C)c(Br)c1=O (stereo unspecified) in the records?
Result string: inactive

====

# Read-out: Monokine induced gamma interferon (MIG), CXCL9 (gene 4283)
# Procedure summary: BSK_SAg_MIG: BioMAP Diversity Plus: SAg Assay for Monokine induced gamma interferon (MIG) Biomarker Activity (AID 2283092)
# Protocol conditions: primary human HUVEC with PBMC; actives raise or lower the signal
Activity calls are given as the source filed them. Rule for the calls: active = hit-call score of the fitted dose curve at least 0.9, where 1 is the maximum; inactive = score below 0.9.
Measurement label: AC50

                               molecule  reported_value
0          CNC(=O)N(C)c1nnc(C(C)(C)C)s1        inactive
1  COC(=O)NC(=S)Nc1ccccc1NC(=S)NC(=O)OC        inactive
2     N#Cc1c[nH]cc1-c1cccc2c1OC(F)(F)O2        inactive
3            Nc1cnn(-c2ccccc2)c(=O)c1Cl        inactive

Query string: I have this molecule here, COCC(=O)N(c1c(C)cccc1C)C(C)C(=O)OC (stereo unspecified) , and I need its recorded AC50.
Result string: inactive

Query string: What about this molecule? CCOP(=O)(OCC)Oc1nc(Cl)c(Cl)cc1Cl
Result string: inactive

Query string: Please answer likewise for CO/N=C(/C1=NOCCO1)c1ccccc1Oc1ncnc(Oc2ccccc2Cl)c1F
Result string: 34.7 µM (active)

Query string: Now consider O=P(O)(O)CCCl and answer again.
Result string: inactive

Query string: Further, for COP(=O)(OC)O/C(C)=C/C(=O)N(C)C ?
Result string: inactive

Query string: Try this molecule too: Cc1nc(N(C)C)nc(OC(=O)N(C)C)c1C
Result string: inactive

Query string: Then what about the molecule COP(=S)(OC)SCn1nnc2ccccc2c1=O ?
Result string: inactive

Query string: Same thing, different molecule: Cc1ccc(N=CN(C)C=Nc2ccc(C)cc2C)c(C)c1
Result string: 30.7 µM (active)

====

# Read-out: solute carrier (SLCO1B1), SLCO1B1 (gene 10599)
# Procedure summary: LTEA_HepaRG_SLCO1B1: Life Technologies and Expression Analysis (LTEA) Assay for solute carrier (SLCO1B1) using HepaRG (AID 2283530)
# Protocol conditions: mRNA level, 48 h; actives raise or lower the signal
Activity calls are given as the source filed them. Rule for the calls: active = hit-call score of the fitted dose curve at least 0.9, where 1 is the maximum; inactive = score below 0.9.
Would you mind answering with one of these outcomes? class 1 = active, class 0 = inactive

Query string: In this assay, the call recorded for COC(=O)NC(=S)Nc1ccccc1NC(=S)NC(=O)OC was what?
Result string: class 0

Query string: Do the same for CCN(CC)c1nc(C)cc(OP(=S)(OC)OC)n1 please
Result string: class 0

====

# Procedure summary: ATG_RORE_CIS: Attagene CIS-FACTORIAL HepG2 Assay for human RAR-related Orphan Receptor Element (RORE) (AID 2282959)
# Protocol conditions: HepG2 Attagene cis-factorial RORE reporter, mRNA; actives raise or lower the signal
Calls of active or inactive are those of the source. The calls were made as follows: active = hit-call score of the fitted dose curve at least 0.9, where 1 is the maximum; inactive = score below 0.9.
Reply using exactly one outcome from class 1 (active), class 0 (inactive)

Check out these entries, answers already filled in.
                                   compound    group
0  COCC(=O)N(c1c(C)cccc1C)C(C)C(=O)OC (centres undefined)  class 0
1  CC1(C)C(C=C(Cl)Cl)C1C(=O)OC(C#N)c1cccc(Oc2ccccc2)c1 (centres undefined)  class 0
2  CCNP(=S)(OC)O/C(C)=C/C(=O)OC(C)C (centres undefined)  class 0
3               Clc1nc(Cl)nc(Nc2ccccc2Cl)n1  class 0
4              COC(=O)NS(=O)(=O)c1ccc(N)cc1  class 0

Query string: In this assay, the call recorded for CC(C)C1(C)N=C(c2ncccc2C(=O)O)NC1=O (centres undefined) was what?
Result string: class 0

Query string: Next compound: O=C(Nc1ccccc1-c1ccc(Cl)cc1)c1cccnc1Cl
Result string: class 0

Query string: Try the compound CC(C)N1C(=O)N(c2ccccc2)CSC1=NC(C)(C)C
Result string: class 0

Query string: Moving on to the next compound: Nc1cnn(-c2ccccc2)c(=O)c1Cl
Result string: class 0

Query string: Also, Nc1c(Cl)c(F)nc(OCC(=O)O)c1Cl please.
Result string: class 0

Query string: Next compound up: CCNC(=O)NC(=O)C(C#N)=NOC
Result string: class 0

Query string: Likewise for COP(=S)(OC)Oc1ccc([N+](=O)[O-])c(C)c1 ?
Result string: class 1

====

# Read-out: Transforming Growth Factor (TGFB1), TGFB1 (gene 7040)
# Procedure summary: LTEA_HepaRG_TGFB1: Life Technologies and Expression Analysis (LTEA) Assay for Transforming Growth Factor (TGFB1) Transporter using HepaRG (AID 2283533)
# Protocol conditions: mRNA level, 48 h; actives raise or lower the signal
Calls of active or inactive are those of the source. The calls were made as follows: active = hit-call score of the fitted dose curve at least 0.9, where 1 is the maximum; inactive = score below 0.9.
Measurement label: outcome

Some entries whose results are on file:
>>> df
                                   compound  reported_value
0                    CNC(=O)Oc1cccc2ccccc12        inactive
1                  CCNC(=O)NC(=O)C(C#N)=NOC        inactive
2            Cc1nc(N(C)C)nc(OC(=O)N(C)C)c1C        inactive
3                         N#Cc1c(Cl)cccc1Cl        inactive
4  CCOc1cc(C(C)(C)C)ccc1C1COC(c2c(F)cccc2F)=N1 (centres undefined)        inactive

Query string: Given the entry CNC(=O)N(C)c1nnc(C(C)(C)C)s1 , report its measured outcome.
Result string: inactive

Query string: Same again, this time with CCOc1nc(F)cc2nc(S(=O)(=O)Nc3c(Cl)cccc3Cl)nn12
Result string: inactive

Query string: Then what about the compound Nc1c(Cl)c(Cl)nc(C(=O)O)c1Cl ?
Result string: inactive
